Molecular target: Lck (Homo sapiens, UniProt P06239)
Construct: Kinases are expressed as either kinase domains or full length constructs; made in house
Sequence (P06239 whole entry, species assumed, the tested form may be a part): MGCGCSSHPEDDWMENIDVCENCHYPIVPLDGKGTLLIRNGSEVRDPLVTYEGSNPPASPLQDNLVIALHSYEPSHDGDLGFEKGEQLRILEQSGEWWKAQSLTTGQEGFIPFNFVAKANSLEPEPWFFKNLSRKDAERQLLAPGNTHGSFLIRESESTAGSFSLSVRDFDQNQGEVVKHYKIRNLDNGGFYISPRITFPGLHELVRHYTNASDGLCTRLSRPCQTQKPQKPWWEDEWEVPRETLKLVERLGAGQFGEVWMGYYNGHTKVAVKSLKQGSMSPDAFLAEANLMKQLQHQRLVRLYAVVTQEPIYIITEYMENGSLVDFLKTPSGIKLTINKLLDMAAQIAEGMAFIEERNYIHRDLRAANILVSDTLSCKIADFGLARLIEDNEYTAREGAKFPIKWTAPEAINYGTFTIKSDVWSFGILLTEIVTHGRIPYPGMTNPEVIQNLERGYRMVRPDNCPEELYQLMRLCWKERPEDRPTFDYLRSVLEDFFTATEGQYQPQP
Assay: Kinase inhibition assay (33P transfer), Lck
Assay type: biochemical
Details: Table 3, class symbols; read-out: Lck-1
pIC50: −log10 of the molar value.
measure: pIC50

compound: COc1cc(Nc2ncnc(-c3cccnc3Nc3cccc(C#N)c3)n2)cc(OC)c1OC
pIC50: < 5.01
--
compound: O=C(O)c1cccc(Nc2ncnc(-n3c(NCc4ccccc4)nc4ccccc43)n2)c1
pIC50: < 4.99
--
compound: COC(=O)c1ccc(-c2cc(Nc3ncnc(Nc4cc(Cl)cc(Cl)c4)n3)[nH]n2)cc1
pIC50: < 5.01
--
compound: COCCNc1ncnc(Nc2cc(-c3ccc(C(=O)OC)cc3)n[nH]2)n1
pIC50: < 4.91
--
compound: CC(C)Nc1ncccc1-c1ncnc(Nc2ccc3[nH]ncc3c2)n1
pIC50: 5.16 to 5.94

Now look at this entry.
The measured pIC50 associated with COc1cc(Nc2ncnc(-c3cccnc3Nc3cccc(C(C)=O)c3)n2)cc(OC)c1OC reads < 5.02

* * *

Molecular target: AKT (Homo sapiens, UniProt Q9Y243)
Construct: Kinases are expressed as either kinase domains or full length constructs; made in house
Sequence (Q9Y243 whole entry, the tested form may be a part): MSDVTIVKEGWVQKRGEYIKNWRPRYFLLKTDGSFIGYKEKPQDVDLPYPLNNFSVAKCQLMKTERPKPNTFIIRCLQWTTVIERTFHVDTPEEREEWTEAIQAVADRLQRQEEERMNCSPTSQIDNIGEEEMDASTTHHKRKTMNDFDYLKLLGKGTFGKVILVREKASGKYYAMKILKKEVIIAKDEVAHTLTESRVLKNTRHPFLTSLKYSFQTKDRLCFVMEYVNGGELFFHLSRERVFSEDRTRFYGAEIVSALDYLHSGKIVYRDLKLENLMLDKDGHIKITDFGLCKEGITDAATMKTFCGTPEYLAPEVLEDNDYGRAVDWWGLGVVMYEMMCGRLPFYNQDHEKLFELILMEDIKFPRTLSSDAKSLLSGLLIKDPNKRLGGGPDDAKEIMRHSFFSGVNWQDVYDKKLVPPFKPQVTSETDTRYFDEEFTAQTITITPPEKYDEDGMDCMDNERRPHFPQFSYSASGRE
Experiment: Kinase inhibition assay (33P transfer), AKT
Assay type: biochemical
Details: Table 2, kinase inhibition class; read-out: AKT3-1
pIC50: −log10 of the molar value.
measure: pIC50

Record excerpt, results attached:
molecule: COc1cc(Nc2ncnc(NCCc3ccccc3)n2)cc(OC)c1OC
pIC50: < 4.93

molecule: CN(c1cccc(Cl)c1)c1ncnc(Nc2ccccc2)n1
pIC50: < 4.84

molecule: CC(C)(C)c1cc(Nc2ncnc(Nc3cccc(C(N)=O)c3)n2)[nH]n1
pIC50: < 4.89

The recorded pIC50 for CCN(CC)CCOc1ccc(Nc2ncnc(-n3c(N)nc4ccccc43)n2)cc1OC is < 5.00

# molecule COc1cc(Nc2ncnc(-n3c(Nc4ccc5[nH]ncc5c4)nc4ccccc43)n2)cc(OC)c1OC ; its pIC50 = 5.05 to 5.16

The measured pIC50 associated with COc1cc(Nc2ncnc(Nc3ccc(C)c(NS(C)(=O)=O)c3)n2)cc(OC)c1OC reads < 5.01

Lab note: measured pIC50 of COc1cc(Nc2ncnc(Nc3ccc(N(C)C(C)=O)cc3)n2)cc(OC)c1OC was < 4.97

GET /value?item= O=C1OCc2ccc(Nc3ncnc(Nc4cc(-c5ccco5)n[nH]4)n3)cc21 &field=pIC50 returns < 4.92

Recorded pIC50 (molecule COc1cc(Nc2ncnc(Nc3cc(OC)c(OCCN4CCOCC4)c(OC)c3)n2)cc(OC)c1OC ): < 5.08

* * *

Target: PDGFRB (Homo sapiens, UniProt P09619)
Construct: Kinases are expressed as either kinase domains or full length constructs; made in house
Sequence (P09619 33-1106, species assumed): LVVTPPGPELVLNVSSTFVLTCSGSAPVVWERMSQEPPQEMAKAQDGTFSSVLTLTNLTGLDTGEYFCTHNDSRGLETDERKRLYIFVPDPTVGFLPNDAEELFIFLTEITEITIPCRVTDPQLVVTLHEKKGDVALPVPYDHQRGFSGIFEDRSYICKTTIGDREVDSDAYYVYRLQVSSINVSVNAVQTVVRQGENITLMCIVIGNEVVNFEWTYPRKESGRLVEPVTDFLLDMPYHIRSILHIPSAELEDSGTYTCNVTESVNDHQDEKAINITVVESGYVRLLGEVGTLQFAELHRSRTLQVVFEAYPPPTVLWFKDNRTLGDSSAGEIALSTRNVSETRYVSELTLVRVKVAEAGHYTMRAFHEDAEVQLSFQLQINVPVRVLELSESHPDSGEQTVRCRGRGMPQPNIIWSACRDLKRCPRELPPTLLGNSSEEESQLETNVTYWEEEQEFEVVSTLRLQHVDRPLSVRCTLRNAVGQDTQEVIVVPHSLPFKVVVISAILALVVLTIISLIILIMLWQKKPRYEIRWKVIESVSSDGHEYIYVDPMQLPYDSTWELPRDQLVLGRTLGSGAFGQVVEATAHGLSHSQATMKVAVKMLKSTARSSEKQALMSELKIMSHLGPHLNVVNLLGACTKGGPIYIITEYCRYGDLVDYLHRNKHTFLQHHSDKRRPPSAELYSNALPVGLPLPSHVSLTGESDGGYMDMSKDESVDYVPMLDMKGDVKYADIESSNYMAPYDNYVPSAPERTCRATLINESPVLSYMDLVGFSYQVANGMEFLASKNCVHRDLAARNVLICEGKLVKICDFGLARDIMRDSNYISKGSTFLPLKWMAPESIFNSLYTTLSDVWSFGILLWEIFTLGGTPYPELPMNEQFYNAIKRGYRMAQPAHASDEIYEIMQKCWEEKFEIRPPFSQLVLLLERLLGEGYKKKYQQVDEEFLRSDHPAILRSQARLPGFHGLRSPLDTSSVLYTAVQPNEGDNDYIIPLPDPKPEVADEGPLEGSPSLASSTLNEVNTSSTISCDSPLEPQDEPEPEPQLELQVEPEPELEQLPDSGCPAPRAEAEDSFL
Experiment: Kinase inhibition assay (33P transfer), PDGFRB
Type: biochemical
Details: read-out: PDGFRB-1
measure: IC50

Below: 4 compounds and their reported IC50.
smi: COc1ccc(Nc2ncnc(Nc3cc(-c4ccccc4)n[nH]3)n2)cc1OC
IC50: > 11.6 µM
//
smi: COCCOc1ccc(Nc2ncnc(-n3c(N)nc4ccccc43)n2)cc1OC
IC50: > 11 µM
//
smi: COc1cc(Nc2ncnc(Nc3cccc4ccccc34)n2)cc(OC)c1OC
IC50: > 11.2 µM
//
smi: NC(=O)c1cccc(Nc2ncnc(-n3c(N)nc4ccccc43)n2)c1
IC50: 1.15 to 6.93 µM

Entry COc1cc(Nc2ncnc(NC(=O)Nc3ccccc3)n2)cc(OC)c1OC , IC50 reported as 8.83 to 11.4 µM

For this compound ( COc1cc(Nc2ncnc(-n3c(NCc4ccc(F)cc4)nc4ccccc43)n2)cc(OC)c1OC ), measured IC50 is < 0.798 µM

# IC50 (compound: COc1cc(Nc2ncnc(N3CCc4cc([N+](=O)[O-])ccc43)n2)cc(OC)c1OC ) is > 10.6 µM

// COc1cc(Nc2ncnc(Nc3ccc(C(=O)O)cc3)n2)cc(OC)c1OC : IC50 value = 1.01 to 6.04 µM

# IC50 of COc1cc(Nc2ncnc(-n3cccc3)n2)cc(OC)c1OC = > 13.7 µM

* * *

Target: Kdr (Homo sapiens)
Construct: Kinases are expressed as either kinase domains or full length constructs; made in house
Sequence (P35968 20-1356, species assumed): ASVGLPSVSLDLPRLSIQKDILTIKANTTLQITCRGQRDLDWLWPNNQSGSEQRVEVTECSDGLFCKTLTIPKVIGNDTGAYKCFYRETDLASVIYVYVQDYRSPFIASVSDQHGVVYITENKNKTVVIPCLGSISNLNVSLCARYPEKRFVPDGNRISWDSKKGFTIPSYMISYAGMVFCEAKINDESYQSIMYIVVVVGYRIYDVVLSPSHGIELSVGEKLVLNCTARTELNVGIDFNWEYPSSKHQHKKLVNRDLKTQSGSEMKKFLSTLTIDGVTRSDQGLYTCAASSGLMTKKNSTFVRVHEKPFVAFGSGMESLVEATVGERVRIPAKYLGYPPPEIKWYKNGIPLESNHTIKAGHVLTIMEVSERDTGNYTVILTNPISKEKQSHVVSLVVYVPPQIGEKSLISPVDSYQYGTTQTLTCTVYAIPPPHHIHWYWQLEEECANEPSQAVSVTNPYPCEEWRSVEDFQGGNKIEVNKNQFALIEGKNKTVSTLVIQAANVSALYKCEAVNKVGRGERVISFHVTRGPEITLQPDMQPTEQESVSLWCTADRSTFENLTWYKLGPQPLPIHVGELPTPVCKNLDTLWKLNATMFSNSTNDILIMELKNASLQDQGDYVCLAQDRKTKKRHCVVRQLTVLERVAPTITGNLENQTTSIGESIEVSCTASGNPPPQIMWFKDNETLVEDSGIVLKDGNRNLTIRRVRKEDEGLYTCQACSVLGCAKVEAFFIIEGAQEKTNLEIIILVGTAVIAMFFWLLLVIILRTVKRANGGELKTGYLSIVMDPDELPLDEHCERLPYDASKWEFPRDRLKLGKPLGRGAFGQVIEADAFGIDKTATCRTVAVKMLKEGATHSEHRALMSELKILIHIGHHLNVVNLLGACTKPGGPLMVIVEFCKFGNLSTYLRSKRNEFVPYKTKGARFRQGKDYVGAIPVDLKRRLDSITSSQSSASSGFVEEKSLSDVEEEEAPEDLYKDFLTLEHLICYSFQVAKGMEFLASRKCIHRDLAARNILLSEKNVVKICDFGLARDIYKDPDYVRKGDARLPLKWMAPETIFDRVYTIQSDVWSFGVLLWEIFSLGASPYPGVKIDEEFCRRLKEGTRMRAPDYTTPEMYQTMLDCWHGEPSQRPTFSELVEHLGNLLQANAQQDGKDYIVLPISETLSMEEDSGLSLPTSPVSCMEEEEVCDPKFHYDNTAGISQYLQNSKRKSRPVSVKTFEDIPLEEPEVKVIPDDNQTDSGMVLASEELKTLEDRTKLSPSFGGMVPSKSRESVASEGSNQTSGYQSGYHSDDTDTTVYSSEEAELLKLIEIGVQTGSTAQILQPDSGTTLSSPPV
Experiment: Kinase inhibition assay (33P transfer), Kdr
Assay type: biochemical
Details: Table 3; read-out: KDR-1
pIC50: −log10 of the molar value.
This section presents compounds with their documented pIC50 values.

# count of solved cases: 5
compound: COc1cc(Nc2ncnc(Nc3ccc(S(=O)(=O)NC(C)=O)cc3)n2)cc(OC)c1OC
reported_measurement: > 6.07

compound: COc1cc(Nc2ncnc(N)n2)cc(OC)c1OC [Compound 925]
reported_measurement: < 4.79

compound: COc1cc(Nc2nc3ccccc3n2-c2ncnc(Nc3cc(OC)c(OC)c(OC)c3)n2)cc(OC)c1
reported_measurement: 5.34 to 6.12

compound: COc1ccc(Nc2ncnc(Nc3ccc(OCc4ccccc4)cc3)n2)cc1OC
reported_measurement: 5.25 to 6.03

compound: COc1cc(Nc2ncnc(-n3c(Nc4cccc(C(N)=O)c4)nc4ccccc43)n2)cc(OC)c1OC
reported_measurement: 5.33 to 6.11

The compound listed as CC(C)(C)OC(=O)Nc1ccc(Nc2ncnc(Nc3ccc(OCc4ccccc4)cc3)n2)cc1 has a reported pIC50 of 5.14 to 5.31

Recorded pIC50 (compound COc1ccc(Sc2ncnc(Nc3cc(OC)c(OC)c(OC)c3)n2)cc1 ): > 6.00

# compound COc1cc(Nc2ncnc(Nc3cc(C)[nH]n3)n2)cc(OC)c1OC ; its pIC50 = > 5.95

* * *

Collected pIC50 values appear next to each entry.
Target: EGFR (Homo sapiens)
Construct: Kinases are expressed as either kinase domains or full length constructs; made in house
Sequence (P00533 25-1210, species assumed): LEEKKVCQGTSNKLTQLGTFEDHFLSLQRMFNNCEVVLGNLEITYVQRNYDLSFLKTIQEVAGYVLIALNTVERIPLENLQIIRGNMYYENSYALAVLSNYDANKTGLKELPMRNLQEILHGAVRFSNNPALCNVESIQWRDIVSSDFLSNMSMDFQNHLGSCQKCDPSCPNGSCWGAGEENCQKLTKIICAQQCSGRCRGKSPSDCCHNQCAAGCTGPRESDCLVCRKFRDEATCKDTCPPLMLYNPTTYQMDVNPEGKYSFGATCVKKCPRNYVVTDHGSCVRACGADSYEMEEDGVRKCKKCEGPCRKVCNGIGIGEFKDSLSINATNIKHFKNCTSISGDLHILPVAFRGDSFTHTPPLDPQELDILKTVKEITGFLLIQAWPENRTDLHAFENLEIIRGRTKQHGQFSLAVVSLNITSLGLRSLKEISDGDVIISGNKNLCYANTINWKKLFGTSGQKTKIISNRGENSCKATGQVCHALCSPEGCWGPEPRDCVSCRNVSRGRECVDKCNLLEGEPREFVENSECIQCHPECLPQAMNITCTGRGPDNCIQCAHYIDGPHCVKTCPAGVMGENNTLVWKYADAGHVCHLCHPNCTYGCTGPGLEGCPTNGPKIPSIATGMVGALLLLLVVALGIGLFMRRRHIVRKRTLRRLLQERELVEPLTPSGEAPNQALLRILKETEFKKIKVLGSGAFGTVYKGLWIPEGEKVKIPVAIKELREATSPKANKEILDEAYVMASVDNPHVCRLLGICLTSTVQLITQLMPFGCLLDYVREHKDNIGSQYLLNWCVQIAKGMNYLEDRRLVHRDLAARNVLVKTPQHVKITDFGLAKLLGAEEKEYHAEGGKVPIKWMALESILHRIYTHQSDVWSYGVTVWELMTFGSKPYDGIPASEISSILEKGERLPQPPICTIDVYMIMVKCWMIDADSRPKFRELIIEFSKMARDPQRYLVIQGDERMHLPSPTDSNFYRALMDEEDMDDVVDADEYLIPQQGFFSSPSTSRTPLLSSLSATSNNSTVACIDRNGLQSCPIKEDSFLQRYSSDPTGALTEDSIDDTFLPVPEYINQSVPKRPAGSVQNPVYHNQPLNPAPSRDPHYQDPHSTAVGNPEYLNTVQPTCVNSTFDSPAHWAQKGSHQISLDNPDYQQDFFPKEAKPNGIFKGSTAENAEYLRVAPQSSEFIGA
Experiment: Kinase inhibition assay (33P transfer), EGFR
Format: biochemical
Settings: Table 2, kinase inhibition class; read-out: EGFR-1
pIC50: −log10 of the molar value.

smi: CCOC(=O)Cc1ccc(Nc2ncnc(Nc3cc(-c4ccco4)n[nH]3)n2)cc1
pIC50: 5.23 to 6.01
//
smi: c1ccc(Cn2ncc3cc(Nc4ncnc(Nc5ccc(N6CCOCC6)cc5)n4)ccc32)cc1
pIC50: > 6.08
//
smi: CN(c1cccc(Cl)c1)c1ncnc(Nc2ccc(F)c(C(F)(F)F)c2)n1
pIC50: 5.22 to 6.00

pIC50 reported for this molecule COc1cc(Nc2ncnc(N(C)c3ccc4c(cnn4Cc4ccccc4)c3)n2)cc(OC)c1OC : > 6.09

* * *

Biological target: AKT (Homo sapiens)
Construct: Kinases are expressed as either kinase domains or full length constructs; made in house
Assay: Kinase inhibition assay (33P transfer), AKT
Assay type: biochemical
Details: Table 2, kinase inhibition class; read-out: AKT3-1
pIC50: −log10 of the molar value.
measure: pIC50

Worked examples, 3 molecules total:
molecule: COc1cc(Nc2ncnc(-n3c(Nc4cc(C)n[nH]4)nc4ccccc43)n2)cc(OC)c1OC [Compound 401]
pIC50: < 5.02
--
molecule: COc1cc(Nc2ncnc(-n3c(NC(CCO)c4ccccc4)nc4ccccc43)n2)cc(OC)c1OC (stereo not shown) [Compound 591]
pIC50: < 5.07
--
molecule: Cc1cccc(Nc2ncnc(Nc3ccc4[nH]ccc4c3)n2)c1 [Compound 110]
pIC50: < 4.85

Turning to the following molecule.
So for COc1cc(Nc2ncnc(Nc3ccc4[nH]ncc4c3)n2)cc(OC)c1OC [Compound 79] , the logged pIC50 turned out to be < 4.94

* * *

Target: Zap-70 (Homo sapiens)
Construct: Kinases are expressed as either kinase domains or full length constructs; made in house
Sequence (P43403 1-619): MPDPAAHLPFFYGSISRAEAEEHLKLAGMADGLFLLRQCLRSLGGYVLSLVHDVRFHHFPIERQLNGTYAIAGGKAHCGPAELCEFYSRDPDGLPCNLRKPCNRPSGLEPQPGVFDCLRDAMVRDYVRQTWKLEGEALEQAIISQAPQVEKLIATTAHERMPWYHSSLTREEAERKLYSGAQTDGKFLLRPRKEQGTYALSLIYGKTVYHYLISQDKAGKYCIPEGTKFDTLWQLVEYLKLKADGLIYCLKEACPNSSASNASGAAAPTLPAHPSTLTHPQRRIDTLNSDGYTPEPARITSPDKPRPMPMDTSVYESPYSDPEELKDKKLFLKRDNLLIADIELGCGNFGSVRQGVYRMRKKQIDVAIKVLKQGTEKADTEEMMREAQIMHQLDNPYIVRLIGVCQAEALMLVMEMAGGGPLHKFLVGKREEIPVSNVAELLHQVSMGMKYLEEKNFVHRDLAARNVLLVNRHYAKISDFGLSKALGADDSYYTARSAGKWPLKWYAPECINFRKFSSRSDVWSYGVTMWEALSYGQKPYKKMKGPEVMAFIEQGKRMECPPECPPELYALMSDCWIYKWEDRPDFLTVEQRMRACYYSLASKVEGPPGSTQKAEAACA
Experiment: Kinase inhibition assay (33P transfer), Zap-70
Format: biochemical
Conditions: Table 3, class symbols; read-out: Zap-1
pIC50: −log10 of the molar value.
measure: pIC50

compound: Cc1ccc(Cl)cc1Nc1ncnc(Nc2cc(Cl)ccc2C)n1 [Compound 638]
measure: pIC50
reported_measurement: < 4.90

The compound listed as COC(=O)c1cccc(Nc2ncnc(-n3c(NCc4ccc(OC)cc4)nc4ccccc43)n2)c1 [Compound 1068] has a reported pIC50 of < 5.03

For record c1ccc(CNc2ncnc(Nc3cc(-c4ccco4)n[nH]3)n2)nc1 [Compound 995] the listed pIC50 is < 4.87

Per the records, this compound ( COc1ccc(Nc2ncnc(NCc3ccc(C)c(Cl)c3)n2)cc1OC [Compound 793] ) has pIC50 equal to < 4.93

Item: Fc1ccc(CNc2ncccc2-c2ncnc(Nc3ccc(N4CCOCC4)cc3)n2)cc1 [Compound 1106] | pIC50: < 5.01

Short answer for COC(=O)c1ccc(-c2cc(Nc3ncnc(Nc4cc(F)cc(F)c4)n3)[nH]n2)cc1 [Compound 810] : pIC50 was < 4.97

Lab note: COc1cc(Nc2ncnc(-c3cccnc3Nc3ccccc3)n2)ccc1NC(=O)CCCN1CCNCC1 [Compound 1093] gave pIC50 of < 5.08

Measured pIC50, c1ccc(-c2cc(Nc3ncnc(Nc4ccc5[nH]ncc5c4)n3)[nH]n2)cc1 [Compound 1013] : 5.02 to 5.19

// data source = patent US7074789B2
